testMethodNotes: Pharmacokinetics in human subjects after 28 days of intranasal administration (Example 7)
Format: in vivo
details: human, plasma, other: intranasal spray, […] Compound 1, 50 μL spray in each nostril, Median, N=7; Day 29 dose after 28 days BID; read-out: Half-life (converted)
measure: half-life (h)
Give bare numbers, in h.

Please look up its half-life: `C(=C\[C@H]1CCNC1)/c1cncnc1`
1.12

====

testMethodNotes: Pharmacokinetics in human subjects after 28 days of intranasal administration (Example 7)
Assay type: in vivo
details: human, plasma, inhaled or intranasal, […] Compound 1, 50 μL spray in each nostril, Mean, N=7; Day 29 single intranasal dose of […] Compound 1 (2.0% hemigalactarate salt) after 28 days BID, 50 μL per nostril; read-out: Half-life (converted)
measure: half-life

I have this compound here, `C(=C\[C@H]1CCNC1)/c1cncnc1` , and I need its recorded half-life.
1.58 h

====

testMethodNotes: Pharmacokinetics in human subjects after 28 days of intranasal administration (Example 7)
Assay type: in vivo
details: human, plasma, other: intranasal spray, […] Compound 1, 50 μL spray in each nostril, Median, N=7; Day 29 dose after 28 days BID
measure: AUC(0-t)

AUC(0-t) lookup needed for `C(=C\[C@H]1CCNC1)/c1cncnc1` , thanks.
4.35 ng·h/mL

====

testMethodNotes: Pharmacokinetics in human subjects after 28 days of intranasal administration (Example 7)
Type: in vivo
details: human, plasma, other: intranasal spray, […] Compound 1, 50 μL spray in each nostril, Median, N=7; Day 29 dose after 28 days BID
measure: AUC(0-inf)
Your answer should be a number followed by the unit of measure.

Name the reported AUC(0-inf) value associated with the compound `C(=C\[C@H]1CCNC1)/c1cncnc1`
5.67 ng·h/mL

====

testMethodNotes: Pharmacokinetics in human subjects after 28 days of intranasal administration (Example 7)
Assay type: in vivo
details: human, plasma, other: intranasal spray, […] Compound 1, 50 μL spray in each nostril, Max, N=7; Day 29 dose after 28 days BID
measure: AUC(0-t) (ng·h/mL)
One number for each entry, in ng·h/mL.

Reported AUC(0-t), compound `C(=C\[C@H]1CCNC1)/c1cncnc1` : ____
12.1

====

testMethodNotes: Pharmacokinetics in human subjects after 28 days of intranasal administration (Example 7)
Format: in vivo
details: human, plasma, other: intranasal spray, […] Compound 1, 50 μL spray in each nostril, Mean, N=7; Day 29 dose after 28 days BID; read-out: Cmax
measure: Cmax

Any idea what Cmax was measured for C(=C\[C@H]1CCNC1)/c1cncnc1 [Compound 1] ?
2.26 ng/mL

====

testMethodNotes: Pharmacokinetics in human subjects after 28 days of intranasal administration (Example 7)
Format: in vivo
details: human, plasma, other: intranasal spray, […] Compound 1, 50 μL spray in each nostril; at 1 h after intranasal administration on Day 29; read-out: peak of mean plasma exposure
measure: concentration at 1 h (ng/mL)
Answers are plain numbers, in ng/mL.

Could you tell me which concentration at 1 h is on file for `C(=C\[C@H]1CCNC1)/c1cncnc1` ?
2.07

====

testMethodNotes: Pharmacokinetics in human subjects after 28 days of intranasal administration (Example 7)
Format: in vivo
details: human, plasma, other: intranasal spray, […] Compound 1, 50 μL spray in each nostril, Median, N=7; Day 29 dose after 28 days BID; read-out: Cmax
measure: Cmax

Fill in: Cmax of `C(=C\[C@H]1CCNC1)/c1cncnc1` is ___
1.35 ng/mL
